- System under test: TLR7 (Homo sapiens, UniProt Q9NYK1)
- Construct: expressed in transfected cells; host or cells: HEK/293 cells carrying TLR7 and an NF-kB luciferase reporter
- Sequence (Q9NYK1 27-1049): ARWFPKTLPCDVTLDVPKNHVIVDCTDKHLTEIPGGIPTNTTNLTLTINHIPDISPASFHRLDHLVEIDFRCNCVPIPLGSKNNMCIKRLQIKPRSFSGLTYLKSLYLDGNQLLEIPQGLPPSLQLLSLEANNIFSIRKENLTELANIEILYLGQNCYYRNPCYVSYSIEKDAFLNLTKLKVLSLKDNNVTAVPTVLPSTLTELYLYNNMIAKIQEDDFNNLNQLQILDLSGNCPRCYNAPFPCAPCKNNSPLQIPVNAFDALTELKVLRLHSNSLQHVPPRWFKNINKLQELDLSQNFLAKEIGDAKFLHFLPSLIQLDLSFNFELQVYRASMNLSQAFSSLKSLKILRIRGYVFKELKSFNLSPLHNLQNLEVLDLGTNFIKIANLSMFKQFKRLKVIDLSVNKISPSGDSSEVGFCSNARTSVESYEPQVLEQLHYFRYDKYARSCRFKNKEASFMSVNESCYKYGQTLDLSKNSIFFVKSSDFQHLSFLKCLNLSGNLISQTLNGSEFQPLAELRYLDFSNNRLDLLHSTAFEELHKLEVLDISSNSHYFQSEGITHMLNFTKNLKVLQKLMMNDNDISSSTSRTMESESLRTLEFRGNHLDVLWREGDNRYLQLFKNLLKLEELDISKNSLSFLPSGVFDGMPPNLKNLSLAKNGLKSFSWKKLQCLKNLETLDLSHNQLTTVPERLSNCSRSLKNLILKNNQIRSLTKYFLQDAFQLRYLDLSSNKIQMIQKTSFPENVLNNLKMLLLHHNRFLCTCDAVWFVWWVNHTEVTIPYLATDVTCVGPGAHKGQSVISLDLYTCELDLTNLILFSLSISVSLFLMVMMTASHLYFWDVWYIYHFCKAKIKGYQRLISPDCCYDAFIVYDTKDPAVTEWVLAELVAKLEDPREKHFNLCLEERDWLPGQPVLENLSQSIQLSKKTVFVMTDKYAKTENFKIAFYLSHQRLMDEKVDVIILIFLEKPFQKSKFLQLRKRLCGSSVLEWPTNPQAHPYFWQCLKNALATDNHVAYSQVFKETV
- Protocol description: HEK/293 TLR7 Cell Assay
- Type: cell-based
- Condition info: TLR7/NFKb HEK cells, R848 agonist 10 uM final concentration, Steady-Glo readout; read-out: TLR7 potency
Measured IC50 by item

>>> result("C[C@@H]1CN(c2cnc(C#N)c3ncccc23)C[C@H](CNCC(O)CF)O1 (stereo partly shown) [Example 373]")
"> 150 nM"
>>> result("C[C@H]1C[C@@H](NCCC2CS(=O)(=O)C2)CN(c2ccc(C#N)c3nccnc23)C1 [Example 43]")
"< 75 nM"
>>> result("COCC(O)CNC(=O)[C@H]1CN(c2ccc(C#N)c3nccnc23)C[C@@H](C)O1 (stereo partly shown) [Example 252]")
"75 to 150 nM"

Inquiry: Consider the compound C[C@@H]1CN(c2ccc(C#N)c3nccnc23)C[C@H](CN2CC(C)(O)C2)O1 [Example 218] and give its measured IC50.
Reply text: < 75 nM

----------
Measured pIC50 by item
- System under test: TLR7 (Homo sapiens, UniProt Q9NYK1)
- Protocol description: HEK/293 TLR7 Cell Assay
- Condition info: TLR7/NFKb HEK cells, R848 agonist 10 uM final concentration, Steady-Glo readout; read-out: TLR7 potency
pIC50: −log10 of the molar value.

>>> result("C[C@H]1C[C@@H](NC(=O)CCN)CN(c2ccc(C(F)(F)F)c3ncccc23)C1 [Example 166]")
"6.82 to 7.12"

Inquiry: Consider the molecule C[C@@H]1CN(c2ccc(C(F)(F)F)c3ncccc23)C[C@H](CN2CCC(C(C)(C)O)C2)O1 (stereo partly shown) [Example 331] and give its measured pIC50.
Reply text: > 7.12

Inquiry: Request: C[C@@H]1CN(c2cnc(C#N)c3ncccc23)C[C@H](CN2CCN(CCO)CC2)O1 [Example 372]
Reply text: 6.82 to 7.12

Inquiry: Request: C[C@H]1C[C@@H](NC(=O)[C@@H]2C[C@H](O)CN2)CN(c2ccc(C#N)c3nccnc23)C1 [Example 116]
Reply text: < 6.82
